measurement label: glass transition temperature (°C)
Kindly provide the numeric value in °C only, without the unit symbol.

Worked examples follow.
compound	assay result
*O[Si](*)(C)CCCCCCCCCCCOc1ccc(C(=O)OC/C=C(\C)CCC=C(C)C)cc1 (repeat unit)	25.00
*c1ccc(C(C#N)(C(=O)OC)C(*)(C#N)C(=O)OC)cc1 (repeat unit)	108.00
*Oc1ccc(OC(=O)/C=C/c2ccc(/C=C/C(*)=O)cc2)cc1 (repeat unit)	210.00
*Nc1ccc(CC(C)(C)NC(=O)CCCCC(*)=O)cc1 (repeat unit)	130.00
*Oc1ccc(Oc2ccc(NC(=O)c3ccc(Oc4ccc(Oc5ccc(C(=O)Nc6ccc(*)cc6)cc5)cc4-c4ccccc4)cc3)cc2)cc1 (repeat unit)	209.00
*C(=O)c1ccc(Oc2ccc(C3(c4ccc(Oc5ccc(C(=O)c6ccc7c(c6)C(=O)N(c6ccc(Oc8ccc(N9C(=O)c%10ccc(*)cc%10C9=O)cc8)cc6)C7=O)cc5)cc4)OC(=O)c4ccccc43)cc2)cc1 (repeat unit)	260.00

## Input Read off the recorded glass transition temperature for *Oc1ccc(NC(=O)c2cc(NC(=O)c3ccc(OC(C)=O)cc3)cc(C(=O)Nc3ccc(*)cc3)c2)cc1 (repeat unit)
## Output 273.00
